SYSTEM: T1, cynomolgus monkey CD8A on primary cynomolgus monkey CD8+ T cells (cynomolgus monkey, UniProt P01732 23-235 (human entry))
T1 construct: also called Cyno CD8alpha
T1 sequence (P01732 other isoform, or with tags, fused parts or gaps limits assumed): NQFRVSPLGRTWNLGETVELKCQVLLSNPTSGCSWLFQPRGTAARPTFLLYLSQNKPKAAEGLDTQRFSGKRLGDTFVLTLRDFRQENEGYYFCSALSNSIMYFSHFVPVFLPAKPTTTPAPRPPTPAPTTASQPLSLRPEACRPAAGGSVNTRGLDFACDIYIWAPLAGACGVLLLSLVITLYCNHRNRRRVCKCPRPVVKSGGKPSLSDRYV
TEST SUMMARY: flow cytometry, cyno CD8+ T cells, 2 uM FN3
QUANTITY MEASURED: Cyno T-cell Binding 2 uM (MFI)

| BINDER | Cyno T-cell Binding 2 uM (MFI) |
| --- | --- |
| P282DR9P1359_C10 (designed binder, FN3 domain) LPAPKNLVVSRVTEDSARLSWTAPDAAFDSFAIVYPEWPTDGEAIVLTVPGSERSYDLTGLKPGTEYAVFIWGVKGGNQSWPLSAIFTT | 98500 MFI |
| P282BR9P1357_B2 (designed binder, FN3 domain) LPAPKNLVVSRVTEDSARLSWNPSEDPQRFDSFLIQYQESEKVGEAIVLTVPGSERSYDLTGLKPGTEYTVSIYGVDVKWEGNRPVASNPLSAIFTT | 18000 MFI |
| P282ER9P1360_C8 (designed binder, FN3 domain) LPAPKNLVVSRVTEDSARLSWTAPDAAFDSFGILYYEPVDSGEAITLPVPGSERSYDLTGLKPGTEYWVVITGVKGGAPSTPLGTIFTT | 66800 MFI |

Moving on to another binder below.
Fill in: Cyno T-cell Binding 2 uM (MFI) of P282ER9P1360_G7 (designed binder, FN3 domain) LPAPKNLVVSRVTEDSARLSWTAPDAAFDSFGILYYEPVDSGEAITLPVPGSERSYDLTGLKPGTEYWVVITGVKGGAPSTPLGAILTT is ___
69700 MFI
